The measurements presented in this section are drawn from patent US20240116985A1.

target.entity: T1, B-cat-Halo (UniProt P35222 1-781)
T1 sequence (looked up): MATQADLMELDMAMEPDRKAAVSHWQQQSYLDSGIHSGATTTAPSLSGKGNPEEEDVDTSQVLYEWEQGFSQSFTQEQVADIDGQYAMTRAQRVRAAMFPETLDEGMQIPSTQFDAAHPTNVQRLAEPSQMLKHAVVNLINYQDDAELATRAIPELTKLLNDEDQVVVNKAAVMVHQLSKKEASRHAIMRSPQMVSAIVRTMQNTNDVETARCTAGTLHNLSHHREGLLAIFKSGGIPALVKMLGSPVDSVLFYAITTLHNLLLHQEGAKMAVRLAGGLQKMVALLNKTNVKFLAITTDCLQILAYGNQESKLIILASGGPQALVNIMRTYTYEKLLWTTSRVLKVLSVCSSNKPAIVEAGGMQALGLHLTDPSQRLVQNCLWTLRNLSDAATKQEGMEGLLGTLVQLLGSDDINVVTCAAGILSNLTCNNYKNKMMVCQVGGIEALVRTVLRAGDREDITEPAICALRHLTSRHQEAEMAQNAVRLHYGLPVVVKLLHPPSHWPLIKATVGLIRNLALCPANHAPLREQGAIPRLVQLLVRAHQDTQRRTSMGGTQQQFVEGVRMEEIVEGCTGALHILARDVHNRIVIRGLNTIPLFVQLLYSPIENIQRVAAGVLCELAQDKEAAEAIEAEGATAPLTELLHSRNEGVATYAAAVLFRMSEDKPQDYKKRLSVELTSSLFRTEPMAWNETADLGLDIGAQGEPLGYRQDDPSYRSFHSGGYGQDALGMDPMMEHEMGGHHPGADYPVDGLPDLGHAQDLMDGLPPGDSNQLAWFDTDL
experiment.notes: cell-based or functional assay
Starred links: 1 amine or outer side, 2 acyl side, 3 side chain; linkers in the order of their positions; H or OH if unused. Positions of bridges follow the written chain, without caps; N, C: chain ends. Non-standard residues stand in square brackets, D forms with d. Primed or numbered codes have the meaning given here. *: point of attachment. PyrS2(3) = (S)-3-amino-1-((pent-4-en-1-yloxy)carbonyl)pyrrolidine-3-carboxylic acid, stapling residue, C=CCCCOC(=O)N1CC[C@@](N[*:1])(C(=O)[*:2])C1; PyrS2″ = (S)-3-amino-1-((pent-4-en-1-yloxy)carbonyl)pyrrolidine-3-carboxylic acid (stapling residue), C=CCCCOC(=O)N1CC[C@@](N[*:1])(C(=O)[*:2])C1; B5(4) = 2,2-bis(4-pentenyl)glycine = 2-amino-2-(pent-4-en-1-yl)hept-6-enoic acid (stitching residue), C=CCCCC(CCCC=C)(N[*:1])C(=O)[*:2]; TfeGA = (S)-2-amino-3-((carboxymethyl)(2,2,2-trifluoroethyl)amino)propanoic acid, O=C([C@H](CN(CC(=O)[*:3])CC(F)(F)F)N[*:1])[*:2]; B5″ = 2,2-bis(4-pentenyl)glycine, stitching residue, C=CCCCC(CCCC=C)(N[*:1])C(=O)[*:2]; Phe(2-Cl) = N[C@@H](Cc1ccccc1Cl)C(=O)O; Bta = N[C@@H](Cc1csc2ccccc12)C(=O)O; αAllylPro = C=CC[C@@]1(C(=O)O)CCCN1; tBuAla = CC(C)(C)C[C@H](N)C(=O)O; 3Thi = N[C@@H](Cc1ccsc1)C(=O)O; Thr(ol) = C[C@@H](O)[C@H](N)CO; Alaol = C[C@@H](CO)N*
Item-by-item account of NanoBRET Abs IC50

For orientation, consider the following solved cases.
- binder: "Ac-[αAllylPro]D[tBuAla][B5″]NDAAFN[PyrS2(3)][3Thi][Bta]Q-NH2 (staple 1-4, 4-11) [I-1206]"
  val: "27.8 µM"
- binder: "Ac-[αAllylPro]D[tBuAla][B5(4)]D[TfeGA]AAFT[PyrS2″][Phe(2-Cl)][Bta][Thr(ol)] (staple 1-4, 4-11) [I-1241]"
  val: "15.7 µM"
- binder: "Ac-[αAllylPro]D[tBuAla][B5(4)]DDAAFT[PyrS2″][Phe(2-Cl)][Bta][Thr(ol)] (staple 1-4, 4-11) [I-1245]"
  val: "12.2 µM"
- binder: "Ac-[αAllylPro]D[tBuAla][B5(4)]D[TfeGA]AAFT[PyrS2″][Phe(2-Cl)][Bta]Q-NHEt (staple 1-4, 4-11) [I-1240]"
  val: "11.5 µM"

// moving on: another record for NanoBRET Abs IC50
Task: Fill blank: measured NanoBRET Abs IC50 of the binder Ac-[αAllylPro]D[tBuAla][B5(4)]DDAAFL[PyrS2″][Phe(2-Cl)][Bta]-Alaol (staple 1-4, 4-11) [I-1250] is ____.
Output: > 20 µM
